Tested on: U2OS
Experiment: Incucyte cell viability with U2OS; further: filed as whole numbers so only -1 and 0 and 1 occur
Assay type: toxicity, cell-based
Conditions: human, 18 h, 10 µM, compound concentration 10 uM, replicate number 1, timepoint 18 hours
Item-by-item account of Growth Rate
Respond with the number and no other words.

Completed entries (count: 6):
C[C@H](NC(=O)Nc1cc2[nH]ncc2c(CO)n1)c1ccccn1; 0
CC[C@H](Nc1ncnc2[nH]cnc12)c1nc2cccc(F)c2c(=O)n1-c1ccccc1; 0
CCN(Cc1ccc(Cl)cc1)c1ncc(C(=O)NCCCN2CCCC2=O)c(NC2CCCC2)n1; 1
C[C@@H](N)Cc1c[nH]cn1.Cl.Cl; 0
c1cc(CN2CCCNCCNCCCNCC2)ccc1CN1CCCNCCNCCCNCC1; 1
Cc1c(Nc2ccc(S(=O)(=O)N3CCN(C)CC3)cc2F)nc2ccc(-c3cnn(C4CC4)c3)cn2c1=O; 0

Here's the next entry for you.
Ask: Identify the measured Growth Rate of COc1ccc2c(c1)O[C@H](c1ccc(OC)c(OC)c1)C[C@@H]2NC(=O)C1(c2ccc3c(c2)OC(F)(F)O3)CC1 for U2OS.
Result: 1

* * *

Item-by-item account of Population Tubulin-Different-Phenotype (%)
Test system: U2OS
Assay: Multiplex assay against U2OS
Type: toxicity, cell-based
Settings: human, 48 h, 10 µM, compound concentration 10 uM, replicate 1
Write the answer as a number in %, unit excluded.

CN(c1cc(C(F)(F)F)nc(OCCC(=O)O)n1)c1cccc2c1CCC2; 15

Ask: Quick check: Population Tubulin-Different-Phenotype (%) of Oc1cccc(-c2nc(N3CCOCC3)c3oc4ncccc4c3n2)c1 ?
Result: 56

Ask: Quick check: Population Tubulin-Different-Phenotype (%) of N#CCNC(=O)c1ccc(-c2ccnc(Nc3ccc(N4CCOCC4)cc3)n2)cc1 ?
Result: 25

Ask: Quick check: Population Tubulin-Different-Phenotype (%) of CN1CCN(Cc2ccc(-c3cnc4[nH]cc(-c5ccc6[nH]ccc6c5)c4c3)cc2)CC1 ?
Result: 100

Ask: Quick check: Population Tubulin-Different-Phenotype (%) of c1ccc(-c2oc3ncnc(NC[C@@H]4CCCO4)c3c2-c2ccccc2)cc1 ?
Result: 89

Ask: Quick check: Population Tubulin-Different-Phenotype (%) of CC(C)[C@H](CO)Nc1nc(Nc2cccc(Cl)c2)c2ncn(C(C)C)c2n1 ?
Result: 100

Ask: Quick check: Population Tubulin-Different-Phenotype (%) of Cl.NC[C@@H]1O[C@H](C23CC4CC(CC(C4)C2)C3)Cc2c1ccc(O)c2O ?
Result: 37

Ask: Quick check: Population Tubulin-Different-Phenotype (%) of CC(C)c1cc(Nc2nc(N3CCC[C@H](N)C3)ncc2C(N)=O)cc(C(C)C)n1 ?
Result: 100

Ask: Quick check: Population Tubulin-Different-Phenotype (%) of CN1C(=O)[C@@H](NC(=O)c2cc3ccccc3[nH]2)N=C(c2ccccc2)c2ccccc21 [DEVAZEPIDE] ?
Result: 45

Ask: Quick check: Population Tubulin-Different-Phenotype (%) of Cc1ccc(S(=O)(=O)NC2c3ccccc3Oc3ccccc32)cc1 ?
Result: 12

Ask: Quick check: Population Tubulin-Different-Phenotype (%) of Cc1c(P(=S)(c2ccccc2)c2ccccc2)n2ccccc2[n+]1C/C=C/c1ccccc1.[Br-] ?
Result: 100

* * *

System: Fibroblast
Assay: Incucyte cell viability with human fibroblast; further: filed as whole numbers so only -1 and 0 and 1 occur
Format: toxicity, cell-based
Details: 12 h, 10 µM, compound concentration 10 uM, replicate number 1, timepoint 12 hours
Item-by-item account of Growth Rate

Completed entries (count: 8):
C/C(=C/C=C/C(C)=C/C(=O)O)c1cc(C(C)(C)C)cc(C(C)(C)C)c1OCC(F)F; 0
Cc1cc2c(cc1-c1cc(/C=C/C(=O)O)ccc1O)C(C)(C)CCC2(C)C; 1
N#CC1(c2ccccn2)CCN(Cc2cc(C(=O)O)c(=O)n3ccccc23)CC1 [MSD-M1PAM]; 0
Cc1c(P(=S)(c2ccccc2)c2ccccc2)n2ccccc2[n+]1C/C=C/c1ccccc1.[Br-]; 0
Cc1ccc2[nH]c(CNCCCc3ccncc3)cc(=O)c2c1 [UCSF924NC]; 0
CCCCN(CC)c1nc(C)nc2c1c(C)cn2-c1c(C)cc(C)cc1C.Cl; 0
CCN(Cc1ccc(Cl)cc1)c1ncc(C(=O)NCCCN2CCCC2=O)c(NC2CCCC2)n1; 1
CNC(=O)Nc1ccc2c(c1)CC[C@@]21OC(=O)N(CC(=O)N(Cc2ccc(F)cc2)[C@@H](C)C(F)(F)F)C1=O [A-485]; 0

Ask: Identify the measured Growth Rate of CC(C)[C@H](CO)Nc1nc(Nc2cccc(Cl)c2)c2ncn(C(C)C)c2n1 [PURVALANOLA] for Fibroblast.
Result: 0

Ask: Identify the measured Growth Rate of Cc1cc2c(cc1C1(c3ccc(C(=O)O)cn3)CC1)C(C)(C)CCC2(C)C for Fibroblast.
Result: 0

Ask: Identify the measured Growth Rate of CC(C)c1ccc(CC(=O)N2CCC[C@@H](c3cccc(OC(C)(C)C(=O)O)c3)C2)cc1 for Fibroblast.
Result: 1

Ask: Identify the measured Growth Rate of COc1ccccc1-c1cc(Nc2cccc(CS(N)(=O)=O)c2)ncn1 for Fibroblast.
Result: 0

Ask: Identify the measured Growth Rate of C[C@@H](N)Cc1c[nH]cn1.Cl.Cl for Fibroblast.
Result: 0
